Target: Kv1.3 (Homo sapiens, UniProt P22001)
Construct: endogenous Kv1.3 in Jurkat T cells
Sequence (P22001 whole entry): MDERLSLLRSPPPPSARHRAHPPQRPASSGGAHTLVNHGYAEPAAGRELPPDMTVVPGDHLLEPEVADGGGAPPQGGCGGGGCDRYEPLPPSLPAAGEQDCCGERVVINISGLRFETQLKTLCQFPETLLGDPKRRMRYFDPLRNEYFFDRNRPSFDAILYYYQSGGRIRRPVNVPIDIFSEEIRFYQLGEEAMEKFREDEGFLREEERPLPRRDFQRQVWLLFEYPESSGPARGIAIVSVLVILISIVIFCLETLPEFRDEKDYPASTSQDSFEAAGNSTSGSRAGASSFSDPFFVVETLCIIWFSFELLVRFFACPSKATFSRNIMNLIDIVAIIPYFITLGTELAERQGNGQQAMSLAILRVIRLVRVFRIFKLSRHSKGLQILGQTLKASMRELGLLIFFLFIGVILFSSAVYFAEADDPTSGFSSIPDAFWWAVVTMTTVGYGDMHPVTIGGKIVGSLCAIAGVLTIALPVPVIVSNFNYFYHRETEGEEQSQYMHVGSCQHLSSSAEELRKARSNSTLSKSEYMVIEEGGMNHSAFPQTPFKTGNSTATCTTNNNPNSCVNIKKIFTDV
Assay: whole-cell patch clamp, Jurkat T cells
pIC50: −log10 of the molar value.
Measurement Label: pIC50

• COc1cc(OC)c(CCC(=O)c2ccc(O)cc2)c(OC)c1 = 4.70

====

Molecular target: mKv1.3 (Mus musculus, UniProt P16390)
Construct: gene Kcna3; wild-type mKv1.3 expressed in HEK293T cells
Sequence (P16390 whole entry): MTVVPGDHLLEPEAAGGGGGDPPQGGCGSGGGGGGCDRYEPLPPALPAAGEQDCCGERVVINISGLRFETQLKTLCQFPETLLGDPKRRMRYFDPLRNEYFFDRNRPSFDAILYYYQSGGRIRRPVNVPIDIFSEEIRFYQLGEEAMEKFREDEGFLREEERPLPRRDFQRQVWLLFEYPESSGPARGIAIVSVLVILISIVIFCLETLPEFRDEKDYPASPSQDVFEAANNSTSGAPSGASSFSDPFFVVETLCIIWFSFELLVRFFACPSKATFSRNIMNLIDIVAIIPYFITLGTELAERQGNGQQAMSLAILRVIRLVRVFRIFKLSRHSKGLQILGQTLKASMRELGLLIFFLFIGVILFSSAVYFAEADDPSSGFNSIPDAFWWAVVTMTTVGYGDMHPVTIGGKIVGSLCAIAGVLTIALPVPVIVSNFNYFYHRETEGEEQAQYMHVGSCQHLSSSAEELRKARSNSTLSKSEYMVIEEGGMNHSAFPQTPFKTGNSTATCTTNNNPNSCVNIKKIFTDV
Experiment: whole-cell patch clamp, HEK293T cells, steady-state current at +[…] mV
Assay type: cell-based
pIC50: −log10 of the molar value.
Measurement Label: pIC50

- COc1cc(OC)c(CCC(=O)c2ccc(O)cc2)c(OC)c1 [LrB, loureirin B]: 5.14

====

Molecular target: mKv1.3-H404T (Mus musculus, UniProt P16390, H404T)
Construct: mKv1.3 mutant expressed in HEK293T cells
Sequence (P16390 whole entry H404T): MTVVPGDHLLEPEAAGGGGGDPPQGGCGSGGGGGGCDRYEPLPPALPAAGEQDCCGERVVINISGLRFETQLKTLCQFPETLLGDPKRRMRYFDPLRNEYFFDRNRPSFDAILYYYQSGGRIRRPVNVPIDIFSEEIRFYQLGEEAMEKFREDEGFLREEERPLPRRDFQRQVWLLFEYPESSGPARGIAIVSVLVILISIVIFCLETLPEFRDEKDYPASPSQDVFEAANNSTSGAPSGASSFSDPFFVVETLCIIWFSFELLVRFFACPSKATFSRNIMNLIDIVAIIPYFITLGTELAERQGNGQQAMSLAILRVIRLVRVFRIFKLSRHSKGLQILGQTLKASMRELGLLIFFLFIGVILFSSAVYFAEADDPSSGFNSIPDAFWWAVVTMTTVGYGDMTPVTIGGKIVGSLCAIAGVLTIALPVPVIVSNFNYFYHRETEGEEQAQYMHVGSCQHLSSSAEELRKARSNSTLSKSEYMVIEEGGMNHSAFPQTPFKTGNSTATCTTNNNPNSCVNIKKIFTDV
Test: whole-cell patch clamp, HEK293T cells, steady-state current at +[…] mV
Measurement Label: IC50 (µM)

- COc1cc(OC)c(CCC(=O)c2ccc(O)cc2)c(OC)c1: 116

These entries and their values trace back to paper PMC4417528.
